- Assay System: Vascular endothelial growth factor receptor 2 (Homo sapiens)
- Protocol Details: Inhibition of Vascular endothelial growth factor receptor 2(KDR) without DTT (dithiothreitol)
Quantity: IC50 (nM)

Solved cases below.
O=C1NN=C(c2cnccn2)/C1=C/c1cc2ccccc2[nH]1 ... 410
CCN(CC)CCc1c(C)[nH]c(/C=C2\C(=O)NN=C2C2CC2)c1C ... 2500
CCN(CC)CCc1c(C)[nH]c(/C=C2\C(=O)NN=C2c2cnccn2)c1C ... 210
O=C1NN=C(c2cnccn2)/C1=C/c1[nH]c2ccccc2c1-c1ccccc1 ... 20
Cc1c(/C=C2\C(=O)NN=C2c2cnccn2)[nH]c2ccccc12 ... 60

(I) O=C1Nc2ccccc2S/C1=C\c1c[nH]c2cc(OCCN3CCOCC3)ccc12
(II) O=C1Nc2ccccc2S/C1=C\c1c[nH]c2c(C(=O)N3CCC(N4CCCCC4)CC3)cccc12
Thinking about recorded IC50 values, which is higher, I or II ? Label of pick, please.
II

====

- Assay System: Vascular endothelial growth factor receptor 2 (Homo sapiens, UniProt P35968)
- Sequence (P35968 whole entry): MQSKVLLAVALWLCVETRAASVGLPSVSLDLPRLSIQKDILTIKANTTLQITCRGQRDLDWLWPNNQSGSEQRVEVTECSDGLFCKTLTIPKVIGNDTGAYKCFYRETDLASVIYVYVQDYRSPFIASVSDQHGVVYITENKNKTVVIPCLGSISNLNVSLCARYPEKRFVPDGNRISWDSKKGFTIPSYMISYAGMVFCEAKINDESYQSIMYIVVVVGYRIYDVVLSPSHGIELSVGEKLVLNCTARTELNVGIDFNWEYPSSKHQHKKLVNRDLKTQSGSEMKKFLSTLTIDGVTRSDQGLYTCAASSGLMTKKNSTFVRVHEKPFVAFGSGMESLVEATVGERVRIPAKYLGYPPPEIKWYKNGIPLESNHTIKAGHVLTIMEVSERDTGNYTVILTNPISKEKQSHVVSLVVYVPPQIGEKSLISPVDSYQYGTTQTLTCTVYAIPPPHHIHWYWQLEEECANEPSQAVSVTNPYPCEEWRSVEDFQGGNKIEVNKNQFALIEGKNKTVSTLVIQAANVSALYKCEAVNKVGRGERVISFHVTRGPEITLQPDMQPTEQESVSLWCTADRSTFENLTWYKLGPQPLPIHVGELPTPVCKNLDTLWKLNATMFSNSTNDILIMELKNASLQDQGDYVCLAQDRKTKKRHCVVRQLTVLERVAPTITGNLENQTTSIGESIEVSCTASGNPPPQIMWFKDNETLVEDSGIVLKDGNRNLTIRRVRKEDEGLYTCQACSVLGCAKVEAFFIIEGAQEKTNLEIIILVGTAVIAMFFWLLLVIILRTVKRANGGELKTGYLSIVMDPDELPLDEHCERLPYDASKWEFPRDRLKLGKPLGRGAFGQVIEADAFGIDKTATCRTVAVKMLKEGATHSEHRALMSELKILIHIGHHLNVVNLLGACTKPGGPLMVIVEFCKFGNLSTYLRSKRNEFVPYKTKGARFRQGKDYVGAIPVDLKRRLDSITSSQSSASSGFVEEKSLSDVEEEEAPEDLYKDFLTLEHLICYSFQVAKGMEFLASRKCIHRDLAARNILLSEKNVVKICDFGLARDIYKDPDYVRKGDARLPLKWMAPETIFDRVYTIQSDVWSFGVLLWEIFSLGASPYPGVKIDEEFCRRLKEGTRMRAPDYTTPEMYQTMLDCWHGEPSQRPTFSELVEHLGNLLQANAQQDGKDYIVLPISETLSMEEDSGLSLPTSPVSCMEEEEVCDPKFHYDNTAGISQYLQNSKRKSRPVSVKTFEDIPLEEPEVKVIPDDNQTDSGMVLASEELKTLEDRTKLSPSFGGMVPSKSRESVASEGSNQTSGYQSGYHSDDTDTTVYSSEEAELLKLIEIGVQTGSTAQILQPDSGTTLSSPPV
- Protocol Details: Inhibition of Vascular endothelial growth factor receptor 2(KDR) with DTT (dithiothreitol)
Quantity: IC50 (nM)

Solved cases below.
CCN(CC)CCc1c(C)[nH]c(/C=C2\C(=O)NN=C2C2CC2)c1C ... 840
O=C1Nc2ccccc2S/C1=C\c1c[nH]c2cc(OCCN3CCOCC3)ccc12 ... 160
CCN(CC)CCc1c(C)[nH]c(/C=C2\C(=O)NN=C2c2cnccn2)c1C ... 80

(1) O=C1NN=C(c2cnccn2)/C1=C/c1[nH]c2ccccc2c1-c1ccccc1
(2) O=C1NN=C(c2cnccn2)/C1=C/c1cc2ccccc2[nH]1
Thinking about recorded IC50 values, which is higher, 1 or 2 ? Label of pick, please.
2
(2: 40000 nM, 1: 470 nM)
